Each record here notes measured Primary assay EC50 (cAMP), n1.
target: GLP-1 receptor (GLP-1R), primary cAMP assay (human, UniProt P43220 24-463); test: cell-based or functional assay
Starred links: 1 amine or outer side, 2 acyl side, 3 side chain; linkers in the order of their positions; H or OH if unused. Non-standard residues stand in square brackets, D forms with d. Groups on a side chain read outwards from the residue. Primed or numbered codes have the meaning given here. No end group written: not given here. *: point of attachment. γGlu = O=C(O)[C@H](CCC(=O)[*:2])N[*:1]; αMeF = C[C@](N)(Cc1ccccc1)C(=O)O; αMeK = C[C@](N)(CCCCN)C(=O)O; Lauroyl = CCCCCCCCCCCC(=O)*; PEG2′ = not defined here; Aib = CC(C)(N)C(=O)O
Quick note: number first, unit second.

binder: H[Aib]EGS[αMeF]TSDVSK([PEG2′-PEG2′-γGlu-Lauroyl])YLEGEAAEEFIK([PEG2′-PEG2′-γGlu-Lauroyl])WVVEGG-NH2 [SEQ ID NO: 240]
Primary assay EC50 (cAMP), n1: 10.9 pM

Attention now shifts to the item below.
Look at this binder and give its reported Primary assay EC50 (cAMP), n1. H[Aib]EGS[αMeF]TSDVSK([PEG2′-PEG2′-γGlu-Lauroyl])FLEGEAA[αMeK]EFIK([PEG2′-PEG2′-γGlu-Lauroyl])FVVEGG-NH2 [SEQ ID NO: 248] 3.77 pM
